Reported values of AUC(0-t) at 24 h for individual entries
Test Protocol: Pharmacokinetic evaluation in beagles, oral administration
Type: in vivo
Condition Context: dog, po, p.o. 2 mg/kg, plasma
Kindly provide the numeric value in ng·h/mL only, without the unit symbol.

Smiles Input | Unit Info | AUC(0-t) at 24 h
[2H]C([2H])([2H])n1nc2c3c(c(-n4ccn(-c5c6c(nn5-c5cc(C)c(F)c(C)c5)CCN(C(=O)c5cc7cc([C@H]8CCOC(C)(C)C8)ccc7n5[C@@]5(c7noc(=O)[nH]7)C[C@@H]5C)[C@H]6C)c4=O)ccc31)OCCC2 | ng·h/mL | 9130

Shifting focus to the compound that follows.
Qu. Which AUC(0-t) at 24 h value is on record for `Cc1cc(-n2nc3c(c2-n2ccn(-c4cc5c6c(c4)CCC(=O)N6CCC5)c2=O)[C@H](C)N(C(=O)c2cc4cc([C@H]5CCOC(C)(C)C5)ccc4n2[C@@]2(c4noc(=O)[nH]4)C[C@@H]2C)CC3)cc(C)c1F` ?
Ans. 9090

---

Test Protocol: Pharmacokinetic evaluation in Macaca fascicularis monkeys, intravenous administration
Assay type: in vivo
Condition Context: cynomolgus monkey, I.V. 0.2 mg/kg, plasma
Property: half-life
Please state the number and follow it with the unit.

Qu. Which half-life value is on record for [2H]C([2H])([2H])n1nc2c3c(c(-n4ccn(-c5c6c(nn5-c5cc(C)c(F)c(C)c5)CCN(C(=O)c5cc7cc([C@H]8CCOC(C)(C)C8)ccc7n5[C@@]5(c7noc(=O)[nH]7)C[C@@H]5C)[C@H]6C)c4=O)ccc31)OCCC2 [Example 282] ?
Ans. 9.8 h

---

Reported values of AUC(0-t) for individual entries
Test Protocol: Pharmacokinetic evaluation in mice, oral administration
Type: in vivo, Balb/c mice
Condition Context: mouse, in vivo, po, p.o. 5 mg/kg, plasma, not marked single PK (cassette PK)
Kindly provide the numeric value in ng·h/mL only, without the unit symbol.

Smiles Input | Recorded Result
Cc1cc(-n2nc3c(c2-n2ccn(-c4ccc(CC(=O)N(C)C)cc4F)c2=O)[C@H](C)N(C(=O)c2cc4cc([C@H]5CCOC(C)(C)C5)ccc4n2[C@@]2(c4noc(=O)[nH]4)C[C@@H]2C)CC3)cc(C)c1F | 10300
C[C@H]1c2c(nn(-c3ccc(F)c(C4CC4)c3)c2-n2ccn(-c3ccc4c(c3)C3(CC3)C(=O)N4C)c2=O)CCN1C(=O)c1cc2cc([C@H]3CCOC(C)(C)C3)ccc2n1[C@@]1(c2noc(=O)[nH]2)C[C@@H]1C | 8990
[2H]C([2H])(OC1CC1)[C@H]1C[C@]1(c1noc(=O)[nH]1)n1c(C(=O)N2CCc3nn(-c4cc(C)c(F)c(C)c4)c(-n4ccn(-c5ccc6c(cnn6C6CC6)c5F)c4=O)c3[C@@H]2C)cc2cc([C@H]3CCOC(C)(C)C3)ccc21 | 19100

Shifting focus to the molecule that follows.
Qu. Which AUC(0-t) value is on record for `Cc1cc(-n2nc3c(c2-n2ccn(-c4ccc5c(cnn5C5CC5)c4F)c2=O)[C@H](C)N(C(=O)c2cc4cc([C@H]5CCOC(C)(C)C5)ccc4n2[C@@]2(c4noc(=O)[nH]4)C[C@@H]2C)CC3)cc(C)c1F` ?
Ans. 30500

---

Test Protocol: Pharmacokinetic evaluation in rats, oral administration
Parameters: species or system SD rats
Condition Context: rat, in vivo, p.o. 5 mg/kg, plasma
Property: AUC(0-t) at 24 h (ng·h/mL)
Kindly provide the numeric value in ng·h/mL only, without the unit symbol.

Qu. Which AUC(0-t) at 24 h value is on record for [2H]C([2H])([2H])n1nc2c3c(c(-n4ccn(-c5c6c(nn5-c5cc(C)c(F)c(C)c5)CCN(C(=O)c5cc7cc([C@H]8CCOC(C)(C)C8)ccc7n5[C@@]5(c7noc(=O)[nH]7)C[C@@H]5C)[C@H]6C)c4=O)ccc31)OCCC2 [Example 282] ?
Ans. 12200

---

Test Protocol: Pharmacokinetic evaluation in rats, oral administration
Design: species or system SD rats
Condition Context: rat, in vivo, p.o. 5 mg/kg, plasma
Property: AUC(0-t) (ng·h/mL)
Kindly provide the numeric value in ng·h/mL only, without the unit symbol.

Compound | Property | Unit Info | Recorded Result
Cc1cc(-n2nc3c(c2-n2ccn(-c4ccc5c(cnn5C5CC5)c4F)c2=O)[C@H](C)N(C(=O)c2cc4cc([C@H]5CCOC(C)(C)C5)ccc4n2[C@@]2(c4noc(=O)[nH]4)C[C@@H]2C)CC3)cc(C)c1F [Example 25] | AUC(0-t) | ng·h/mL | 28500

Shifting focus to the compound that follows.
Qu. Which AUC(0-t) value is on record for Cc1cc(-n2nc3c(c2-n2ccn(-c4ccc5c6c(nn5C)CCCOc46)c2=O)[C@H](C)N(C(=O)c2cc4cc([C@H]5CCOC(C)(C)C5)ccc4n2[C@@]2(c4noc(=O)[nH]4)C[C@@H]2C)CC3)cc(C)c1F [Example 35] ?
Ans. 12400

---

Test Protocol: Pharmacokinetic evaluation in beagles, oral administration
Format: in vivo
Condition Context: dog, po, p.o. 2 mg/kg, plasma
Property: AUC(0-t) at 24 h (ng·h/mL)
Kindly provide the numeric value in ng·h/mL only, without the unit symbol.

Smiles Input | Property | Recorded Result
[2H]C([2H])(OC1CC1)[C@H]1C[C@]1(c1noc(=O)[nH]1)n1c(C(=O)N2CCc3nn(-c4cc(C)c(F)c(C)c4)c(-n4ccn(-c5ccc6c(cnn6C6CC6)c5F)c4=O)c3[C@@H]2C)cc2cc([C@H]3CCOC(C)(C)C3)ccc21 | AUC(0-t) at 24 h | 40100
CC#C[C@H]1C[C@]1(c1noc(=O)[nH]1)n1c(C(=O)N2CCc3nn(-c4cc(C)c(F)c(C)c4)c(-n4ccn(-c5ccc6c(cnn6C6CC6)c5F)c4=O)c3[C@@H]2C)cc2cc([C@H]3CCOC(C)(C)C3)ccc21 | AUC(0-t) at 24 h | 15900
Cc1cc(-n2nc3c(c2-n2ccn(-c4ccc5c(cnn5C5CC5)c4F)c2=O)[C@H](C)N(C(=O)c2cc4cc([C@H]5CCOC(C)(C)C5)ccc4n2[C@@]2(c4noc(=O)[nH]4)C[C@@H]2COC2CC2)CC3)cc(C)c1F | AUC(0-t) at 24 h | 11500
Cc1cc(-n2nc3c(c2-n2ccn(-c4ccc5c(cnn5C5CC5)c4F)c2=O)[C@H](C)N(C(=O)c2cc4cc([C@H]5CCOC(C)(C)C5)ccc4n2[C@@]2(c4noc(=O)[nH]4)[C@@H]4COC[C@@H]42)CC3)cc(C)c1F | AUC(0-t) at 24 h | 41000

Shifting focus to the molecule that follows.
Qu. Which AUC(0-t) at 24 h value is on record for `[2H]C([2H])([2H])n1nc2c3c(c(-n4ccn(-c5c6c(nn5-c5cc(C)c(F)c(C)c5)CCN(C(=O)c5cc7cc([C@H]8CCOC(C)(C)C8)ccc7n5[C@@]5(c7noc(=O)[nH]7)C[C@@H]5C#C)[C@H]6C)c4=O)ccc31)OCCC2` ?
Ans. 17000

---

Assay Target: human GLP-1 receptor (Homo sapiens, UniProt P43220)
Construct: expressed in transfected cells
Sequence (P43220 24-463): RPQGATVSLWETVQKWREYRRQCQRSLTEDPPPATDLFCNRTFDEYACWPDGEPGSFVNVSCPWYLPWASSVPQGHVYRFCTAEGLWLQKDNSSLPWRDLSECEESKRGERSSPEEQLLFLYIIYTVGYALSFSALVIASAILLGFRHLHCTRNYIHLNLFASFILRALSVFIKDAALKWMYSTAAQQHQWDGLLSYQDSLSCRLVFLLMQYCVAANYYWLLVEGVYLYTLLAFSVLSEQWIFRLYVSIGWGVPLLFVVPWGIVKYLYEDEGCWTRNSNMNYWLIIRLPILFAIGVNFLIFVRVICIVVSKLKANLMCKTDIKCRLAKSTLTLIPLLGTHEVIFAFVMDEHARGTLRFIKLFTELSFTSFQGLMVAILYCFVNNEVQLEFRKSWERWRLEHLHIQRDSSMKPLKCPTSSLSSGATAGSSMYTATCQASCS
Test Protocol: cAMP production in cell line stably transformed with human GLP1 receptor, 2 h co-incubation (HTRF)
Type: cell-based
Condition Context: CHO-K1/GLP-1R/CRE-luc cells, stimulation for 2 h, read-out: EC50
Reported values of EC50 for individual entries
Kindly provide the numeric value in nM only, without the unit symbol.

The following compounds have reported results that may help.
Compound | EC50 [nM]
[2H]C([2H])([2H])n1nc2c3c(c(-n4ccn(-c5c6c(nn5-c5cc(C)c(F)c(C)c5)CCN(C(=O)c5cc7cc([C@H]8CCOC(C)(C)C8)ccc7n5[C@@]5(c7noc(=O)[nH]7)C[C@@H]5C)[C@H]6C)c4=O)ccc31)OCCC2 [Example 282] | 0.074
C#C[C@H]1C[C@]1(c1noc(=O)[nH]1)n1c(C(=O)N2CCc3nn(-c4cc(C)c(F)c(C)c4)c(-n4ccn(-c5ccc6c(cnn6C6CC6)c5F)c4=O)c3[C@@H]2C)cc2cc([C@H]3CCOC(C)(C)C3)ccc21 [Example 143] | 0.013
Cc1cc(-n2nc3c(c2-n2ccn(-c4cc5c6c(c4)OCCN6C(=O)CC5)c2=O)[C@H](C)N(C(=O)c2cc4cc([C@H]5CCOC(C)(C)C5)ccc4n2[C@@]2(c4noc(=O)[nH]4)C[C@@H]2C)CC3)cc(C)c1F [Example 43] | 0.06
[2H]C([2H])([2H])n1nc2c3c(c(-n4ccn(-c5c6c(nn5-c5cc(C)c(F)c(C)c5)CCN(C(=O)c5cc7cc([C@H]8CCOC(C)(C)C8)ccc7n5[C@@]5(c7noc(=O)[nH]7)C[C@@H]5COC5CC5)[C@H]6C)c4=O)ccc31)OCCC2 [Example 285] | 0.09
Cc1cc(-n2nc3c(c2-n2ccn(-c4ccc5c(cnn5C5CC5)c4F)c2=O)[C@H](C)N(C(=O)c2cc4cc([C@H]5CCOC(C)(C)C5)ccc4n2[C@@]2(c4noc(=O)[nH]4)C[C@@H]2COC2CC2)CC3)cc(C)c1C#N [Example 195] | 0.035
CC#C[C@H]1C[C@]1(c1noc(=O)[nH]1)n1c(C(=O)N2CCc3nn(-c4cc(C)c(F)c(C)c4)c(-n4ccn(-c5ccc6c(cnn6C6CC6)c5F)c4=O)c3[C@@H]2C)cc2cc([C@H]3CCOC(C)(C)C3)ccc21 [Example 144] | 0.05

Qu. Which EC50 value is on record for Cc1cc(-n2nc3c(c2-n2ccn(-c4ccc5c(cnn5C5CC5)c4F)c2=O)[C@H](C)N(C(=O)c2cc4cc([C@H]5CCOC(C)(C)C5)ccc4n2[C@@]2(c4noc(=O)[nH]4)C[C@@H]2C#N)CC3)cc(C)c1F [Example 190] ?
Ans. 0.04

Qu. Ok, now Cc1cc(-n2nc3c(c2-n2ccn(-c4cc5c6c(c4)CCC(=O)N6CCC5)c2=O)[C@H](C)N(C(=O)c2cc4cc([C@H]5CCOC(C)(C)C5)ccc4n2[C@@]2(c4noc(=O)[nH]4)C[C@@H]2C)CC3)cc(C)c1F [Example 34]
Ans. 0.11

Qu. Ok, now Cc1cc(-n2nc3c(c2-n2ccn(-c4ccc5c(cnn5C5CC5)c4F)c2=O)[C@H](C)N(C(=O)c2cc4cc([C@H]5CCOC(C)(C)C5)ccc4n2[C@@]2(c4noc(=O)[nH]4)C[C@@H]2C)CC3)cc(C)c1C#N [Example 49]
Ans. 0.032

Qu. Ok, now Cc1cc(-n2nc3c(c2-n2ccn(-c4ccc5c(cnn5C5CC5)c4F)c2=O)[C@H](C)N(C(=O)c2cc4cc([C@H]5CCOC(C)(C)C5)ccc4n2[C@@]2(c4noc(=O)[nH]4)C[C@@H]2COc2ccccc2)CC3)cc(C)c1F [Example 187]
Ans. 0.08

Qu. Ok, now [2H]C([2H])(OC1CC1)[C@H]1C[C@]1(c1noc(=O)[nH]1)n1c(C(=O)N2CCc3nn(-c4cc(C)c(F)c(C)c4)c(-n4ccn(-c5ccc6c(cnn6C6CC6)c5F)c4=O)c3[C@@H]2C)cc2cc([C@H]3CCOC(C)(C)C3)ccc21 [Example 194]
Ans. 0.009

Qu. Ok, now C#C[C@H]1C[C@]1(c1noc(=O)[nH]1)n1c(C(=O)N2CCc3nn(-c4cc(C)c(F)c(C)c4)c(-n4ccn(-c5cc6c7c(c5)CCC(=O)N7CCC6)c4=O)c3[C@@H]2C)cc2cc([C@H]3CCOC(C)(C)C3)ccc21 [Example 174]
Ans. 0.15

Qu. Ok, now [2H]C([2H])([2H])N1C(=O)C2(CC2)c2cc(-n3ccn(-c4c5c(nn4-c4cc(C)c(C#N)c(C)c4)CCN(C(=O)c4cc6cc([C@H]7CCOC(C)(C)C7)ccc6n4[C@@]4(c6noc(=O)[nH]6)C[C@@H]4C)[C@H]5C)c3=O)ccc21 [Example 162]
Ans. 0.1

Qu. Ok, now Cc1cc(-n2nc3c(c2-n2ccn(-c4ccc5c(cnn5C5CC5)c4F)c2=O)[C@H](C)N(C(=O)c2cc4cc([C@H]5CCOC(C)(C)C5)ccc4n2[C@@]2(c4noc(=O)[nH]4)C[C@@H]2COC(F)F)CC3)cc(C)c1F [Example 68]
Ans. 0.016

Qu. Ok, now Cc1cc(-n2nc3c(c2-n2ccn(-c4ccc5c(cnn5C5CC5)c4F)c2=O)[C@H](C)N(C(=O)c2cc4cc([C@H]5CCOC(C)(C)C5)ccc4n2[C@@]2(c4noc(=O)[nH]4)[C@@H]4COC[C@@H]42)CC3)cc(C)c1F [Example 65-1]
Ans. 0.06

Qu. Ok, now Cc1cc(-n2nc3c(c2-n2ccn(-c4cc5c6c(c4)CCC(=O)N6CCC5)c2=O)[C@H](C)N(C(=O)c2cc4cc([C@H]5CCOC(C)(C)C5)ccc4n2[C@@]2(c4noc(=O)[nH]4)C[C@@H]2COC2CC2)CC3)cc(C)c1F [Example 200]
Ans. 0.09
